Molecular target: Metabotropic glutamate receptor 8 (Rattus norvegicus) (UniProt P70579)
Sequence (P70579 whole entry, looked up): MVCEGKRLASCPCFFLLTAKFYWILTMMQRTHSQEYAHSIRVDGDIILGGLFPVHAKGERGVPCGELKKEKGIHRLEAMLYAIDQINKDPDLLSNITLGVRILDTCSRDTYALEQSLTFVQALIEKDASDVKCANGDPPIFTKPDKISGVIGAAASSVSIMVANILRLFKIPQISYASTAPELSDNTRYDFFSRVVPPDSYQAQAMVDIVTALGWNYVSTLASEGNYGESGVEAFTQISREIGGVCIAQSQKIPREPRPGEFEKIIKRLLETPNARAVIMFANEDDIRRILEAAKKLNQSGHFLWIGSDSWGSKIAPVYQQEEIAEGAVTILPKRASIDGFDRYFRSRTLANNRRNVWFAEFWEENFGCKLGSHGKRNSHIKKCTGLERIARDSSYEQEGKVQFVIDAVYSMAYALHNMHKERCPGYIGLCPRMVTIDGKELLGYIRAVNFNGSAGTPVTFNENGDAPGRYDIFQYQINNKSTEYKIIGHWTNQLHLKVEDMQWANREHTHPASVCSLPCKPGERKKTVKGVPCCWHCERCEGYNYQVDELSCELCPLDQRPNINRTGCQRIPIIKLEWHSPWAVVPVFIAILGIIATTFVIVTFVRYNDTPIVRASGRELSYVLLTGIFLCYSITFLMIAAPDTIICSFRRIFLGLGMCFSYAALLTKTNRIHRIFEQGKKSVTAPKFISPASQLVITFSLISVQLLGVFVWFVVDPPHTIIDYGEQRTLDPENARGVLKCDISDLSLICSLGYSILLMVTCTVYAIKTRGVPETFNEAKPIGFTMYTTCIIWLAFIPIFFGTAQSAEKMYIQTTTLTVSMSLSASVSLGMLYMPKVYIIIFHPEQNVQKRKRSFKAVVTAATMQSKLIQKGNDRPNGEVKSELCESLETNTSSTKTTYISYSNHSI
Experiment: mGluR8 Gi/Go-coupled signaling modulation – cell-based, rat, thallium flux, HTS, primary screen (AID 488969)
Settings: HEK293 rat mGluR8, GIRK thallium flux, FluoZin2; at 10 µM; stronger effect = higher value; submaximal glutamate (EC20) added with thallium
Over roughly 110,000 compounds, “z-score” has its median near -0.1; the highest 2% begin near 2. What follows is part of a selection rich in the highest values, with near analogues and random picks from the rest.
Form field: z-score (one value per entry).
Form rule: numeric answer, no unit written next to it.

Q: Return the recorded z-score value; entry: Cc1ccc(OCCSc2nnc(-c3ccncc3)n2C)cc1
Result: -0.157

Q: Identify z-score associated with the compound CCOC(=O)N1CCN(c2nnnn2-c2ccccc2)CC1
Result: -0.14

Q: Query z-score for CC1=NN(C(=S)Nc2ccccc2)C(c2ccccc2)C1 (centres undefined)
Result: 0.129

* * *

Here, each record is paired with measured z-score data.
Biological target: Metabotropic glutamate receptor 8 (Rattus norvegicus) (UniProt P70579)
Assay: mGluR8 Gi/Go-coupled signaling modulation – cell-based, rat, thallium flux, HTS, primary screen (AID 488969)
Details: HEK293 rat mGluR8, GIRK thallium flux, FluoZin2; at 10 µM; stronger effect = higher value; submaximal glutamate (EC20) added with thallium
The full ranking holds about 110,000 compounds; the median of “z-score” is about -0.1, and the highest 2% start at about 2. Shown is part of a subset that was picked to be rich in the highest values. The source made the active and inactive calls.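 Rule for the calls: active = z-score in the third read window above 3 or below -3; inactive = the rest.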

Previously resolved entries follow.
compound: Cc1ccc(C2CC2C(=O)NN)cc1 (centres undefined)
result: -0.033
//
compound: Cc1ccc(N2C(=O)CCSC23C(=O)Nc2ccccc23)cc1 (centres undefined)
result: -0.0429
//
compound: Oc1ccc(CNc2ccccc2)c2cccnc12
result: 0.0879
//
compound: Fc1ccc(Cn2nnnc2CN2CCN(C3CCCCC3)CC2)cc1
result: 0.354
//
compound: O=c1oc2cc(OCc3ccc(F)cc3F)ccc2cc1-c1ccc2ccccc2n1
result: -0.209

Q: Given CCOC(=O)c1c(-c2ccccc2)oc2ccc(OC)cc12 , respond with its z-score.
Result: 0.0333

Q: State, in one line, measured z-score of O=C(NNC(=O)C1CC1c1ccccc1)Nc1cccc(Cl)c1 (centres undefined)
Result: -0.494

Q: Return z-score for the following compound: O=S(=O)(Nc1ccc2nc(C(F)(F)F)[nH]c2c1)c1ccccc1
Result: 4.74 (active)

Q: Return z-score (reported value) for this compound: CC1CCN(c2nc3ccccc3nc2N2CCC(C)CC2)CC1
Result: -0.169

Q: Note down z-score recorded for Cc1ccc(-c2nc3ccc(NS(=O)(=O)c4ccccc4)cc3[nH]2)o1
Result: 1.31

Q: Indicate its recorded z-score; the compound in question is O=S(=O)(Nc1ccc2nc(-c3ccc(Br)o3)[nH]c2c1)c1ccccc1
Result: -0.849

Q: Identify measured z-score corresponding to CC(C)(C)NC(=O)C1CCCN(S(=O)(=O)c2cccc3cccnc23)C1 (centres undefined)
Result: -0.133

Q: Note down z-score recorded for CC1=CC(=Nc2c(C)n(C)n(-c3ccccc3)c2=O)C=C(C)C1=O
Result: 0.433

Q: Identify measured z-score corresponding to Cc1c(NC(=O)CSc2ccc(Cl)cc2)cccc1-c1nc2ncccc2o1
Result: -0.212

Q: Give z-score for the following compound: Cc1ccc(/C(O)=C2/C(=O)C(=O)N(CCN3CCOCC3)C2c2cccs2)cc1 (centres undefined)
Result: -0.157

Q: Please list z-score recorded for the compound CC(Oc1ccc(Cl)cc1)C(=O)N/N=C/c1ccsc1 (centres undefined)
Result: 11.6 (active)

* * *

Target: Metabotropic glutamate receptor 8 (Rattus norvegicus) (UniProt P70579)
Test: mGluR8 Gi/Go-coupled signaling modulation – cell-based, rat, thallium flux, HTS, primary screen (AID 488969)
Settings: HEK293 rat mGluR8, GIRK thallium flux, FluoZin2; at 10 µM; stronger effect = higher value; submaximal glutamate (EC20) added with thallium
Whole data set: some 110,000 compounds, median “z-score” near -0.1, cut for the highest 2% near 2. The sample holds the highest values, similar compounds and a random draw of the others, so the mix is not that of the screen.
readoutName: z-score
Could you keep your reply to the number by itself?

Consider the following illustrative entries.
compound: COc1cc2c(cc1OC)CN(S(C)(=O)=O)CC2
targetUnderTest: Metabotropic glutamate receptor 8 (Rattus norvegicus) (UniProt P70579)
quantitativeResult: 0.0161
//
compound: O=C(Nc1ccccc1)c1c(F)c(F)c(F)c(F)c1F
targetUnderTest: Metabotropic glutamate receptor 8 (Rattus norvegicus) (UniProt P70579)
quantitativeResult: -0.122
//
compound: Cc1cccc(N2CSC3=C(C#N)C(c4ccc(C)o4)CC(=O)N3C2)c1 (stereo unspecified)
targetUnderTest: Metabotropic glutamate receptor 8 (Rattus norvegicus) (UniProt P70579)
quantitativeResult: -0.375
//
compound: COC(=O)CSc1nc2ccccc2o1
targetUnderTest: Metabotropic glutamate receptor 8 (Rattus norvegicus) (UniProt P70579)
quantitativeResult: -0.541
//
compound: CCC(=C(c1ccc(OC)cc1)c1ccc(OC)cc1)c1cn(CC(O)CN2CCN(C)CC2)c2ccccc12 (stereo unspecified)
targetUnderTest: Metabotropic glutamate receptor 8 (Rattus norvegicus) (UniProt P70579)
quantitativeResult: 2.63
//
compound: CCn1c(SCC(N)=O)nc2sc3c(c2c1=O)CCCC3
targetUnderTest: Metabotropic glutamate receptor 8 (Rattus norvegicus) (UniProt P70579)
quantitativeResult: 8.59
//
compound: COc1ccc(C(=O)/C=C/c2cn(CN3CCN(C)CC3)c3ccccc23)cc1
targetUnderTest: Metabotropic glutamate receptor 8 (Rattus norvegicus) (UniProt P70579)
quantitativeResult: -0.629
//
compound: CCn1c(SCC(=O)O)nc2sc3c(c2c1=O)CCC3
targetUnderTest: Metabotropic glutamate receptor 8 (Rattus norvegicus) (UniProt P70579)
quantitativeResult: -1.62

Q: Output measured z-score for this item: COc1ccc(C(=O)/C=C/c2cn(CC(O)CN3CCOCC3)c3ccccc23)cc1 (stereo unspecified)
Result: -0.177

Q: Return z-score for the following compound: Cc1ccc(OCc2nc(-c3ccc(-n4cccc4)cc3)no2)cc1C
Result: -0.0508

Q: Given CCCN1C(=O)/C(=C/c2ccco2)SC1=Nc1ccc(OC)cc1 , respond with its z-score.
Result: -0.105

* * *

Target: Metabotropic glutamate receptor 8 (Rattus norvegicus)
Test: mGluR8 Gi/Go-coupled signaling modulation – cell-based, rat, thallium flux, HTS, primary screen (AID 488969)
Conditions: HEK293 rat mGluR8, GIRK (G protein-gated inwardly rectifying potassium channel) thallium flux, FluoZin2; at 10 µM; stronger effect = higher value; submaximal glutamate (EC20) added with thallium
Over roughly 110,000 compounds, “z-score” has its median near -0.1; the highest 2% begin near 2. The sample holds the highest values, similar compounds and a random draw of the others, so the mix is not that of the screen.
z-score: recorded values
Give your answer as a number; write no unit.

Previously resolved entries follow.
compound: Cc1ccc(CN2CCNC(=O)C2CC(=O)O)cc1 (configuration not stated)
readoutName: z-score
quantitativeResult: -0.134
--
compound: CC(C)CC(=O)NC(=S)Nc1nc(-c2ccccc2)cs1
readoutName: z-score
quantitativeResult: 0.855
--
compound: Brc1ccc(-c2cn3c(n2)CCc2ccc4cccnc4c2-3)cc1
readoutName: z-score
quantitativeResult: 0.098
--
compound: COc1ccc(OC)c(NC(=O)Cn2c(CCC(=O)O)ccc2-c2cccs2)c1
readoutName: z-score
quantitativeResult: -0.116
--
compound: Cc1ccccc1NC(=O)NCC1CCCO1 (configuration not stated)
readoutName: z-score
quantitativeResult: 0.73
--
compound: Cc1ccc(-n2c(-c3ccc(Br)cc3)c[n+]3c2CCc2ccc4cccnc4c2-3)cc1
readoutName: z-score
quantitativeResult: 4.86
--
compound: CC(C)CC(=O)NC(=S)Nc1nc(-c2cccc3ccccc23)cs1
readoutName: z-score
quantitativeResult: 2.97
--
compound: N=C1/C(=C/c2cccn2-c2cccc([N+](=O)[O-])c2)C(=O)N=C2SC=CN12
readoutName: z-score
quantitativeResult: -0.207

Q: For the compound Cc1cc(C)c(S(C)(=O)=O)c(Oc2ccccc2C)n1 , report z-score.
Result: -0.0363

Q: Complete the entry with z-score for CCc1cc(C(N)=O)c(NC(=O)c2ccc(OC)cc2)s1
Result: 3.98

Q: Report z-score, nothing else, for this compound: CC(C)N=c1scc(-c2ccco2)n1/N=C/c1ccc(O)c(O)c1
Result: 1.68

Q: Answer with the recorded z-score of COc1ccc(N=C2SC(C(N)=O)CC(=O)N2CCc2ccc(OC)c(OC)c2)cc1 (configuration not stated) only.
Result: -0.154

Q: Provide only the value of recorded z-score for CCOC(=O)c1c(C)[nH]c(C(=O)COC(=O)/C=C/c2ccc3c(c2)OCO3)c1C
Result: 0.00271

Q: Please list z-score recorded for the compound COc1ccc(CN2CCNC(=O)C2CC(=O)O)cc1OC (configuration not stated)
Result: 3.61

Q: Provide one value: measured z-score of CCOC(=O)Cc1nnc(Nc2cccc(C)c2)c2ccccc12
Result: -0.988

Q: For CC(C)CC(=O)NC(=S)Nc1nc(-c2ccc(Cl)cc2)cs1 , write its z-score.
Result: 0.0823

Q: Give the value of z-score reported for the following: CCOC(=O)c1cc(CC)sc1NC(=O)c1cc(OC)c(OC)c(OC)c1
Result: 0.399

Q: For the compound CCCN1CNC(=S)N(CC2CCCO2)C1 (configuration not stated) , report z-score.
Result: 0.136

Q: # return recorded z-score for input COc1cc(NC(=O)CSCC(=O)Nc2cccc(C(F)(F)F)c2)c(Cl)cc1Cl
Result: -0.193

Q: Return z-score (reported value) for this compound: CC(C)Oc1cc(NC(=O)CS(=O)CC(=O)Nc2cccc(C(F)(F)F)c2)c(Cl)cc1Cl (configuration not stated)
Result: 2.75

Q: # return recorded z-score for input CC(C)Oc1cc(NC(=O)CSCC(=O)Nc2cccc(C(F)(F)F)c2)c(Cl)cc1Cl
Result: -0.183

Q: Recall and state the measured z-score for CCCOc1c(OC)cc(Cl)cc1C1NC(=O)NC(C)=C1C(=O)NCc1ccccc1 (configuration not stated) .
Result: -0.431
